The reported measurements were obtained from patent US11673892B2.

Target: human RIP1 kinase domain (2-375) (Homo sapiens)
Sequence (Q13546 2-375): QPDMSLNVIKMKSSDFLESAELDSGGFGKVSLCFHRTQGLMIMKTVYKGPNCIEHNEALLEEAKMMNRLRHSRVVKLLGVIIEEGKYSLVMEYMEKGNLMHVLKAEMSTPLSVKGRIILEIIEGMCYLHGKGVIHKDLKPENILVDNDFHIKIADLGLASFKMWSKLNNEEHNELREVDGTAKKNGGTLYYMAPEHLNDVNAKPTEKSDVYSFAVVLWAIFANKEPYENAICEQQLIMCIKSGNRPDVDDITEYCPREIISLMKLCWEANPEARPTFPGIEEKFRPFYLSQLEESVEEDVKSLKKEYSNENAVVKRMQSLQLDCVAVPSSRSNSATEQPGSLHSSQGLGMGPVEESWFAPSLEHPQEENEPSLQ
ENDPOINT_NAME: Ki (nM)

F[C@H]1C[C@@H](c2ccccc2)n2nc(-n3cnc(C(F)(F)F)c3)nc21 (single isomer, unassigned) [Example 62] | 160

I. C=C(CC)c1nc2n(n1)[C@H](c1ccccc1)C[C@@H]2F (single isomer, unassigned) [Example 97]
II. Cc1cnn(-c2nc3n(n2)[C@H](c2ccccc2)C[C@@H]3F)c1 (single isomer, unassigned) [Example 25]
Exam item: Which has the higher Ki, I or II ? Answer by stating the label of the chosen item.
Marked response: I
